Please find below pIC50 measurements for Vascular endothelial growth factor receptor 2 (Mus musculus, UniProt P35918), combined from several publications.
pIC50: −log10 of the molar value.
Quantity Measured: pIC50

[[record]]
molecule = "O=C1Nc2ccc(Br)cc2C1=Cc1cc2cc(OCCN3CCOCC3)ccc2[nH]1"
system = "Vascular endothelial growth factor receptor 2 (Mus musculus, UniProt P35918)"
relation_operator = "="
numeric_result = 6.66

[[record]]
molecule = "CC(C)NS(=O)(=O)c1ccc2c(c1)C(=Cc1cc3cc(OCCN4CCOCC4)ccc3[nH]1)C(=O)N2"
system = "Vascular endothelial growth factor receptor 2 (Mus musculus, UniProt P35918)"
relation_operator = "="
numeric_result = 5.82

[[record]]
molecule = "CN(C)S(=O)(=O)c1ccc2c(c1)C(=Cc1cc3cc(OCCN4CCOCC4)ccc3[nH]1)C(=O)N2"
system = "Vascular endothelial growth factor receptor 2 (Mus musculus, UniProt P35918)"
relation_operator = "="
numeric_result = 5.37

[[record]]
molecule = "CNC(=O)Nc1cc(CNc2ncsc2C(=O)Nc2ccc3c(c2)OC(F)(F)C(F)(F)O3)ccn1"
system = "Vascular endothelial growth factor receptor 2 (Mus musculus, UniProt P35918)"
relation_operator = ">"
numeric_result = 6.30

[[record]]
molecule = "CN(C)S(=O)(=O)c1ccc2c(c1)C(=Cc1cc3ccccc3[nH]1)C(=O)N2"
system = "Vascular endothelial growth factor receptor 2 (Mus musculus, UniProt P35918)"
relation_operator = "="
numeric_result = 5.19

[[record]]
molecule = "O=C1Nc2ccccc2C1=Cc1cc2cc(OCCN3CCCC3)ccc2[nH]1"
system = "Vascular endothelial growth factor receptor 2 (Mus musculus, UniProt P35918)"
relation_operator = "="
numeric_result = 7.00

[[record]]
molecule = "O=C1Nc2ccc(-c3ccccc3)cc2C1=Cc1cc2cc(OCCN3CCCC3)ccc2[nH]1"
system = "Vascular endothelial growth factor receptor 2 (Mus musculus, UniProt P35918)"
relation_operator = "="
numeric_result = 6.80

[[record]]
molecule = "O=C1Nc2ccc(S(=O)(=O)Nc3cccnc3)cc2C1=Cc1cc2cc(OCCN3CCOCC3)ccc2[nH]1"
system = "Vascular endothelial growth factor receptor 2 (Mus musculus, UniProt P35918)"
relation_operator = "<"
numeric_result = 4.70

[[record]]
molecule = "CNC(=O)c1cc(CNc2ncsc2C(=O)Nc2ccc3c(c2)OC(F)(F)C(F)(F)O3)ccn1"
system = "Vascular endothelial growth factor receptor 2 (Mus musculus, UniProt P35918)"
relation_operator = ">"
numeric_result = 6.30

[[record]]
molecule = "COc1cccc(-c2ccc3c(c2)NC(=O)C3=Cc2cc3cc(OCCN4CCCC4)ccc3[nH]2)c1"
system = "Vascular endothelial growth factor receptor 2 (Mus musculus, UniProt P35918)"
relation_operator = "="
numeric_result = 5.70

[[record]]
molecule = "CN(c1cccc(Cl)c1)S(=O)(=O)c1ccc2c(c1)C(=Cc1cc3cc(OCCN4CCOCC4)ccc3[nH]1)C(=O)N2"
system = "Vascular endothelial growth factor receptor 2 (Mus musculus, UniProt P35918)"
relation_operator = "="
numeric_result = 5.07

[[record]]
molecule = "O=C(NCCCCN1CCCC1)c1cc(CNc2ncsc2C(=O)Nc2ccc3c(c2)OC(F)(F)O3)ccn1"
system = "Vascular endothelial growth factor receptor 2 (Mus musculus, UniProt P35918)"
relation_operator = ">"
numeric_result = 6.30

[[record]]
molecule = "O=C1Nc2ccc(S(=O)(=O)Nc3ccccc3)cc2C1=Cc1cc2cc(OCCN3CCOCC3)ccc2[nH]1"
system = "Vascular endothelial growth factor receptor 2 (Mus musculus, UniProt P35918)"
relation_operator = "="
numeric_result = 5.00

[[record]]
molecule = "NS(=O)(=O)c1ccc2c(c1)C(=Cc1ccc3[nH]ccc3c1)C(=O)N2"
system = "Vascular endothelial growth factor receptor 2 (Mus musculus, UniProt P35918)"
relation_operator = "="
numeric_result = 5.40

[[record]]
molecule = "CNS(=O)(=O)c1ccc2c(c1)C(=Cc1c[nH]c3ccccc13)C(=O)N2"
system = "Vascular endothelial growth factor receptor 2 (Mus musculus, UniProt P35918)"
relation_operator = "<"
numeric_result = 4.70

[[record]]
molecule = "CNC(=O)c1cc(Oc2ccc(NC(=O)Nc3cc(C(C)(C)C)nn3-c3cccc(COC(C)=O)c3)c(F)c2)ccn1"
system = "Vascular endothelial growth factor receptor 2 (Mus musculus, UniProt P35918)"
relation_operator = ">"
numeric_result = 6.00

